system: CRAF (Homo sapiens, UniProt P04049)
Construct: fused on or other part: GST tag (N-terminal according to the vendor's product)
Sequence (P04049 whole entry Y340E/Y341E, form open, the tested form may be a part): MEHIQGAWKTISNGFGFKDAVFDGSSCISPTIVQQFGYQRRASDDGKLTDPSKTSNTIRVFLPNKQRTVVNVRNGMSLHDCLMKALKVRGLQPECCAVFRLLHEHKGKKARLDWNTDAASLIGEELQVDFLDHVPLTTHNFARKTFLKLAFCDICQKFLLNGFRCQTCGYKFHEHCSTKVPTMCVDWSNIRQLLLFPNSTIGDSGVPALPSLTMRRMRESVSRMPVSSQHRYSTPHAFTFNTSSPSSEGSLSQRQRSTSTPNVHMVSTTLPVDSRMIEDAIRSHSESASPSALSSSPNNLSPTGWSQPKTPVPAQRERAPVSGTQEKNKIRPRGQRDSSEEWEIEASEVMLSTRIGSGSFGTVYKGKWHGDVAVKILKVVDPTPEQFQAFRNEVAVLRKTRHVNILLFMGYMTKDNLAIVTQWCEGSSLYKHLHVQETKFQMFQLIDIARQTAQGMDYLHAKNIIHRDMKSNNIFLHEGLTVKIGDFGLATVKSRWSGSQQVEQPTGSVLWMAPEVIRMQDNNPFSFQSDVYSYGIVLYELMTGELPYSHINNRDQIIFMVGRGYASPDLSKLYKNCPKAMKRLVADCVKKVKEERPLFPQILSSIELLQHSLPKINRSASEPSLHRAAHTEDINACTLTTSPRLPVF
assay_procedure: CRAF kinase activity assay (ADP-Glo)
Type: biochemical
condition_label: Table 3; 10 μM ATP, kinase-dead MEK1 substrate
// IC50 lookup, one value per entry

Below: 6 molecules and their reported IC50.
O=C(c1cn(-c2nc3c(Nc4c(F)ccc(NS(=O)(=O)c5cccc(Cl)c5Cl)c4F)ncnc3s2)c2ccccc12)N1C2CCC1CC(O)C2 (stereo not shown) | < 10 nM
CN(Cc1ccncc1)S(=O)(=O)c1cn(-c2nc3c(Nc4c(F)ccc(NS(=O)(=O)c5cccc(Cl)c5Cl)c4F)ncnc3s2)c2ccccc12 | < 10 nM
O=S(=O)(Nc1ccc(F)c(Nc2ncnc3sc(-n4cnc5c(F)c(OCCO)ccc54)nc23)c1F)c1cccc(Cl)c1Cl | < 10 nM
O=S(=O)(Nc1ccc(F)c(Nc2ncnc3sc(-n4cnc5c(N6CCC[C@H](O)C6)cccc54)nc23)c1F)c1cccc(Cl)c1Cl | 10 to 50 nM
O=S(=O)(Nc1ccc(F)c(Nc2ncnc3sc(-n4cnc5c(N6CC7CC6CO7)cccc54)nc23)c1F)c1cccc(Cl)c1Cl (stereo not shown) | 10 to 50 nM
COc1nccc2c1ncn2-c1nc2c(Nc3c(F)ccc(NS(=O)(=O)c4cccc(Cl)c4Cl)c3F)ncnc2s1 | < 10 nM

Problem: Fill in: IC50 of "O=S(=O)(Nc1ccc(F)c(Nc2ncnc3sc(-n4cnc5ccccc54)nc23)c1F)c1cccc(Cl)c1Cl" is ___
Solution: < 10 nM

Problem: Fill in: IC50 of "CCN(CCOC)S(=O)(=O)c1cn(-c2nc3c(Nc4c(F)ccc(NS(=O)(=O)c5cccc(Cl)c5Cl)c4F)ncnc3s2)c2ccccc12" is ___
Solution: 10 to 50 nM

Problem: Fill in: IC50 of "Cc1c(F)cccc1S(=O)(=O)Nc1ccc(F)c(Nc2ncnc3sc(-n4cc(C(=O)N5C6CCC5CN(C)C6)c5ccccc54)nc23)c1F" is ___
Solution: < 10 nM

Problem: Fill in: IC50 of "CCS(=O)(=O)c1cn(-c2nc3c(Nc4c(F)ccc(NS(=O)(=O)c5cccc(Cl)c5Cl)c4F)ncnc3s2)c2ccccc12" is ___
Solution: 10 to 50 nM

Problem: Fill in: IC50 of Cc1c(F)cccc1S(=O)(=O)Nc1ccc(F)c(Nc2ncnc3sc(-n4nc(C(=O)N5CCC(CO)C5)c5ccccc54)nc23)c1F (stereo not shown) is ___
Solution: 10 to 50 nM
